Origin of measurements: patent US20150315211A1

measured-on: BCL-XLΔC (Homo sapiens, UniProt Q07817)
Sequence (Q07817 1-212 limits assumed, stated change not applied): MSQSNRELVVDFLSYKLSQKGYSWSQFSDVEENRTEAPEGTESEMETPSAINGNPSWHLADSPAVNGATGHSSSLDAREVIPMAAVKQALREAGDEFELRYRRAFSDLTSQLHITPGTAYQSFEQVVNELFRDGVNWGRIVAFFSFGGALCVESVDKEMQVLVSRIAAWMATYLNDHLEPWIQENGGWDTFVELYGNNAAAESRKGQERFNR
method: High-throughput competitive FP binding screen, FITC-BAD BH3/BCL-XLΔC interaction
particulars: FITC-BAD BH3/BCL-XLΔC interaction pair, competitive FP screen
quantity-kind: BCL-XL % Bound (%)
Numbers only; they are read as %.

Cc1ccc2c(c1C)NC(C(=O)O)C1CC=CC21 (stereo not drawn) : 82.8

Q: Using the record for CN1CCCN(Cc2cc(C(C)(C)C)c(O)c(C(C)(C)C)c2)CC1 , report its BCL-XL % Bound.
Ans: 83.5

Q: Using the record for c1ccc(-c2ccc3c(c2)c2c4n3CCN=C4CCC2)cc1 , report its BCL-XL % Bound.
Ans: 68.24

Q: Using the record for CC1=NN(c2ccccc2)C(=O)/C1=C/c1ccc(OC(=O)c2ccco2)c(Cl)c1 , report its BCL-XL % Bound.
Ans: 96.2

Q: Using the record for Oc1ccc(C2Oc3ccccc3C3CC(c4ccccc4O)=NN32)cc1 (stereo not drawn) , report its BCL-XL % Bound.
Ans: 93.42

Q: Using the record for CC1=C(C#N)C(=O)N(CC(C)O)C(=O)/C1=C/c1ccc(-c2ccc(C(=O)OC(C)C)cc2)o1 (stereo not drawn) , report its BCL-XL % Bound.
Ans: 107.7

Q: Using the record for Cc1cc2c(n1-c1ccc(C(=O)O)cc1)CCCC2 , report its BCL-XL % Bound.
Ans: 65.33

Q: Using the record for COc1cccc(OCc2nnc(SCc3ccccc3)n2C)c1 , report its BCL-XL % Bound.
Ans: 97.51

Q: Using the record for Cc1ccc(/C=C2\C(=O)N(c3ccccc3)c3ccccc32)o1 , report its BCL-XL % Bound.
Ans: 110.1

Q: Using the record for CCCOc1nc2c(c(-c3ccco3)c1C#N)CCCC2 , report its BCL-XL % Bound.
Ans: 83.67

Q: Using the record for CCc1ccc2c(c1)C1(NN=C(c3ccccc3)S1)C(=O)N2 (stereo not drawn) , report its BCL-XL % Bound.
Ans: 99.43

Q: Using the record for Cc1conc1NC(c1cccs1)c1ccc2cccnc2c1O (stereo not drawn) , report its BCL-XL % Bound.
Ans: 103.8

Q: Using the record for CN(C)c1ccc2cccc(O)c2n1 , report its BCL-XL % Bound.
Ans: 95.09

Q: Using the record for CC1CCC[SH](c2cc(O)ccc2O)C1 (stereo not drawn) , report its BCL-XL % Bound.
Ans: 94.72

Q: Using the record for N#C/C(=C/C=C/c1ccc(-c2cc(Cl)ccc2Cl)o1)C(N)=S , report its BCL-XL % Bound.
Ans: 79.39

Q: Using the record for Cc1ccc(/C=C2\C(=O)Nc3ccc(Br)cc32)o1 , report its BCL-XL % Bound.
Ans: 77.59

Q: Using the record for CC(C)Cn1c2ccc(Cl)cc2c2nc3ccccc3nc21 , report its BCL-XL % Bound.
Ans: 89.44

Q: Using the record for C/C(=N\NC(=S)Nc1ccccc1C)c1ccc(O)cc1 , report its BCL-XL % Bound.
Ans: 103.4

Q: Using the record for CCCN1C(=O)/C(=C/c2ccc(-c3cccc(C(F)(F)F)c3)o2)NC1=S , report its BCL-XL % Bound.
Ans: 85.65

====

measured-on: MCL-1ΔNΔC (Homo sapiens)
method: High-throughput competitive FP binding screen, FITC-MCL-1 SAHB/MCL-1ΔNΔC interaction
Parameters: the C-terminal alpha-helix was deleted from each of these constructs; GST (N, cleaved yes); made in house
particulars: FITC-MCL-1 SAHB/MCL-1ΔNΔC interaction pair, competitive FP screen
quantity-kind: MCL-1% Bound

Sample answers from the record:
O=c1c(O)c(-c2ccc(O)c(O)c2)oc2cc(O)cc(O)c12 [drawing 172] : 9.24%
Cc1ccc(/C=C/C(=O)N2CCN(C(c3ccccc3)c3ccccc3)CC2)o1 : 55.15%
CC1=C(C#N)C(=O)N(CCc2ccccc2)C(=O)/C1=C/c1ccc(-c2ccc(S(N)(=O)=O)cc2)o1 : 7.037%
Oc1ccc(SSc2ccc(O)cc2)cc1 : 58.12%
N#CC(C#N)=C(C#N)c1ccc(-c2ccccc2)[nH]1 : 35.11%

Q: Using the record for CCN(CC)c1cc(C)c2cc(NC(=O)/C=C/c3ccco3)ccc2n1 , report its MCL-1% Bound.
Ans: 11.73%

Q: Using the record for O=C(O)C1Nc2c(I)cccc2C2C=CCC12 (centres unmarked) , report its MCL-1% Bound.
Ans: 36.12%

Q: Using the record for CS(=O)(=O)C1=NN2C(=N)/C(=C\c3ccc(-c4ccc(Cl)cc4)o3)C(=O)N=C2S1 , report its MCL-1% Bound.
Ans: 33.28%

Q: Using the record for O=c1[nH]cnc2ccc(Br)cc12 , report its MCL-1% Bound.
Ans: 34.67%

Q: Using the record for N#C/C(=C/c1cn(Cc2ccc(C(=O)O)o2)c2ccccc12)c1ccc(F)cc1 , report its MCL-1% Bound.
Ans: 4.673%

Q: Using the record for CC1CCc2c(sc3ncn4c(S)nnc4c23)C1 (centres unmarked) , report its MCL-1% Bound.
Ans: 48.65%

====

measured-on: BCL-XLΔC (Homo sapiens, UniProt Q07817)
method: High-throughput competitive FP binding screen, FITC-BAD BH3/BCL-XLΔC interaction
BCL-XL % Bound listing for selected molecules.
Numbers only; they are read as %.

Oc1c(Cl)cc(Cl)c(Cl)c1Cc1c(O)c(Cl)cc(Cl)c1Cl [Hexachlorophene, reference compound] : 100.4
C=CCN1C(=O)/C(=C\c2ccc(N3CCOCC3)cc2C)C(=O)NC1=S : 82.66
C=CCN1C(=O)/C(=C\c2ccc(N(CC)CC)cc2)C(=O)NC1=S : 102.2
CCc1ccc(C=C2C(=O)N(C)C(=S)N(C)C2=O)cc1 : 100.9
Cc1cc2c(C(C)C)c(O)c(O)c(C=O)c2c(O)c1-c1c(C)cc2c(C(C)C)c(O)c(O)c(C=O)c2c1O.[Na+].[Na+] : 101

Q: Using the record for O=C1NC(=O)C(=Cc2ccc(Sc3ccc(Cl)cc3)o2)C(=O)N1 , report its BCL-XL % Bound.
Ans: 92.22

Q: Using the record for N#C/C(=C\c1ccc(O)c(O)c1)C(N)=S [drawing 231] , report its BCL-XL % Bound.
Ans: 100.8

Q: Using the record for O=C1NC(=O)N(CCC2=CCCCC2)C(=O)/C1=C/c1cnc(-c2ccccc2)nc1 [drawing 98] , report its BCL-XL % Bound.
Ans: 106.9

====

measured-on: MCL-1ΔNΔC (Homo sapiens, UniProt Q07820)
Sequence (Q07820 172-320 limits assumed, stated change not applied): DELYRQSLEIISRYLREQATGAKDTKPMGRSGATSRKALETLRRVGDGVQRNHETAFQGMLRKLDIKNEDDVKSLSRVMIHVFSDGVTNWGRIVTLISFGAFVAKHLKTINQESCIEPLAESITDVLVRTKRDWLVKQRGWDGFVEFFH
method: High-throughput competitive FP binding screen, FITC-MCL-1 SAHB/MCL-1ΔNΔC interaction
Design: the C-terminal alpha-helix was deleted from each of these constructs; GST (N, cleaved yes); made in house
particulars: FITC-MCL-1 SAHB/MCL-1ΔNΔC interaction pair, competitive FP screen
Assign a class from recorded MCL-1% Bound; defined classes: zone 1 (below 30%), zone 2 (30% to below 40%), zone 3 (40% or more)

Q: Tag the class for CCCCn1nnnc1COC(=O)/C(C#N)=C/c1ccc(N(C)C)cc1
Ans: zone 1

====

measured-on: MCL-1ΔNΔC (Homo sapiens, UniProt Q07820)
method: High-throughput competitive FP binding screen, FITC-MCL-1 SAHB/MCL-1ΔNΔC interaction
Set-up: the C-terminal alpha-helix was deleted from each of these constructs; GST (N, cleaved yes); made in house
particulars: FITC-MCL-1 SAHB/MCL-1ΔNΔC interaction pair, competitive FP screen
quantity-kind: MCL-1% Bound (%)
Numbers only; they are read as %.

Sample answers from the record:
O=C(CSc1nnc(C2CC2)n1Cc1ccco1)c1cccc(Cl)c1 : 51.14
COc1cccc(OCc2nnc(SCc3ccccc3)n2C)c1 : 46.56
COc1ccc(-n2nc3cc(C)c(N)c(Br)c3n2)cc1 : 32.56

Q: Using the record for O=c1c(O)c(-c2ccc(O)c(O)c2)oc2cc(O)cc(O)c12 [drawing 15] , report its MCL-1% Bound.
Ans: 16.69

Q: Using the record for Cc1ccc(C)c2[nH]c(=O)c(C(c3nnnn3C3CCCC3)N3CCCC3)cc12 (centres unmarked) , report its MCL-1% Bound.
Ans: 39.75

Q: Using the record for Oc1ccc(C2Oc3ccccc3C3CC(c4ccccc4O)=NN32)cc1 (centres unmarked) , report its MCL-1% Bound.
Ans: 47.99

Q: Using the record for O=S(=O)(Nc1ccc(Oc2ccc(Cl)cc2C2CCCCC2)nc1)c1cccc2nonc12 , report its MCL-1% Bound.
Ans: 20.72

Q: Using the record for Cc1cc(NC(=O)/C=C/c2ccco2)n(-c2nc3ccccc3n2Cc2cccc(Oc3ccccc3)c2)n1 , report its MCL-1% Bound.
Ans: 56.33

Q: Using the record for CCCCC(=O)Cc1ccco1 , report its MCL-1% Bound.
Ans: 40.94

Q: Using the record for CC(/N=C/c1cccc(O)c1O)c1ccccc1 (centres unmarked) , report its MCL-1% Bound.
Ans: 40.42

Q: Using the record for CN(Cc1ccc(-c2ccc(Br)cc2)o1)C(=O)c1ccc(S(N)(=O)=O)cc1 , report its MCL-1% Bound.
Ans: 69.53

Q: Using the record for Cc1ccc(/C=C2\C(=O)N(c3ccccc3)c3ccccc32)o1 , report its MCL-1% Bound.
Ans: 62.72
